Test system: upland rice (Oryza sp., var. Tebonnet, RICE)
Test: Pre-emerge test, crop safety
Type: in vivo
Details: 63 g ai/ha; rating scale 0-100, 14 days after application
Description: A standard greenhouse herbicide activity screening system was used to evaluate the herbicidal efficacy and crop safety of these test compounds. […] At 14 days after application of the test materials, phytotoxicity ratings were recorded. […]
Provide the recorded Pre-emerge phytotoxicity rating, crop damage RICE for the entries that follow.

Observe how each entry below is paired with its result.
CCCCOC(=O)C(C)(Cl)Cc1c(OC)c(Cl)cc(F)c1-n1c(=O)cc(C(F)(F)F)n(C)c1=O (stereo not shown) = 10
COc1c(Cl)cc(F)c(N2C(=O)C3CCCCN3C2=S)c1NC(=O)c1ccc2ccccc2c1 (stereo not shown) = 0
COc1c(Cl)cc(F)c(-n2c(=O)cc(C(F)(F)F)n(C)c2=O)c1CC(Cl)C(=O)OCC(F)(F)C(F)F (stereo not shown) = 0

Now let's try a different one.
// Pre-emerge phytotoxicity rating, crop damage RICE lookup, key: COc1c(Cl)cc(F)c(-n2c(=O)cc(C(F)(F)F)n(C)c2=O)c1CC(C)(Cl)C(=O)OCC(C)C (stereo not shown) 20
